assay: in vivo; conditions: nude, mouse, whole blood, intraperitoneal, 8 mg/kg

>  <smiles.record>
CO[C@H]1C[C@@H]2CC[C@@H](C)[C@@](O)(O2)C(=O)C(=O)N2CCCC[C@H]2C(=O)O[C@H]([C@H](C)C[C@@H]2CC[C@@H](O)[C@H](OC)C2)CC(=O)[C@H](C)/C=C(\C)[C@@H](O)[C@@H](OC)C(=O)[C@H](C)C[C@H](C)/C=C/C=C/C=C/1C

>  <concentration at 24 h (µg/mL)>
0.0429

$$$$

Hello, the source for this data is paper PMC2670829, in case you need it.
